The origin of these recorded values is patent US20230295157A1.

# experimentalSystem: Factor XIa (Homo sapiens (Human))
# protocolText: Factor XIa inhibition assay (FLINT) utilizing a fluorophore-quencher pair peptide substrate
# Format: biochemical
# conditionSummary: 30 min preincubation, kinetic reads over 30 min, 5Fam-KLTRAETV-K5Tamra substrate 15 μM; read-out: FXIa Kin Inh IC50
# Text: Biological Example 1: Factor XIa Inhibition Assay Utilizing a Fluorophore-Quencher Pair Peptide Substrate A fluorescence intensity (FLINT) based assay was used to monitor inhibition of Factor XIa. The peptide substrate, 5Fam-[…]-K5Tamra (purchased from New England Peptide) was chosen based on the FXI sequence. […] The peptide substrate was designed with a fluorophore-quencher pair, where the fluorescence is quenched until FXIa cleaves the 8-mer peptide after the Arg residue. […]

>  <compound>
CC(=O)N[C@H](C)c1ccc(-c2[nH]c([C@@H]3CCC4CC(c5c(-n6cnnn6)ccc(Cl)c5F)=CC(=O)N43)nc2F)cc1 (stereo partly drawn) [Example 11]

>  <experimentalSystem>
Factor XIa (Homo sapiens (Human))

>  <unitSymbol>
nM

>  <IC50>
11.4

$$$$
>  <compound>
O=C1C=C(c2c(-n3cnnn3)ccc(Cl)c2F)C[C@H]2CC[C@@H](c3ncc(-c4ccnc(CO)c4F)[nH]3)N12 [Example 222]

>  <experimentalSystem>
Factor XIa (Homo sapiens (Human))

>  <unitSymbol>
nM

>  <IC50>
1.8

$$$$
>  <compound>
Nc1nccc(-c2cnc([C@@H]3CC[C@@H]4CC(c5c(-n6cnnn6)ccc(Cl)c5F)=CC(=O)N43)[nH]2)c1F [Example 126]

>  <experimentalSystem>
Factor XIa (Homo sapiens (Human))

>  <unitSymbol>
nM

>  <IC50>
0.5

$$$$
>  <compound>
O=C1Cc2cc(-c3cnc([C@@H]4CCC5CC(c6c(-n7cnnn7)ccc(Cl)c6F)=CC(=O)N54)[nH]3)ccc2N1 (stereo partly drawn) [Example 314]

>  <experimentalSystem>
Factor XIa (Homo sapiens (Human))

>  <unitSymbol>
nM

>  <IC50>
1

$$$$
>  <compound>
CS(=O)(=O)Nc1ccccc1-c1c[nH]c([C@@H]2CCC3CC(c4c(-n5cnnn5)ccc(Cl)c4F)=CC(=O)N32)n1 (stereo partly drawn) [Example 293]

>  <experimentalSystem>
Factor XIa (Homo sapiens (Human))

>  <unitSymbol>
nM

>  <IC50>
79.7

$$$$
>  <compound>
O=C(O)c1sc(-c2cnc([C@@H]3CC[C@@H]4CC(c5c(-n6cc(C(F)(F)F)nn6)ccc(Cl)c5F)=CC(=O)N43)[nH]2)cc1F (single isomer, unassigned) [Example 195]

>  <experimentalSystem>
Factor XIa (Homo sapiens (Human))

>  <unitSymbol>
nM

>  <IC50>
0.5

$$$$

----------
Listing: IC50 of selected compounds
# experimentalSystem: human plasma kallikrein (Homo sapiens (Human), UniProt P03952)
# Sequence (P03952 391-638): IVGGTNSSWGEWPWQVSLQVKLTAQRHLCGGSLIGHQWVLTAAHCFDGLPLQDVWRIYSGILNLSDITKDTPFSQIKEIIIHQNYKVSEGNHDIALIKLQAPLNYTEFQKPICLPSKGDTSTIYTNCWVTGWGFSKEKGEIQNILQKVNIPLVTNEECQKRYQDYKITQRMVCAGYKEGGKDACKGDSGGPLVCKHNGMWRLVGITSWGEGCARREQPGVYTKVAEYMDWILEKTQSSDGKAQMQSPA
# Sequence (P03952 20-390 partner): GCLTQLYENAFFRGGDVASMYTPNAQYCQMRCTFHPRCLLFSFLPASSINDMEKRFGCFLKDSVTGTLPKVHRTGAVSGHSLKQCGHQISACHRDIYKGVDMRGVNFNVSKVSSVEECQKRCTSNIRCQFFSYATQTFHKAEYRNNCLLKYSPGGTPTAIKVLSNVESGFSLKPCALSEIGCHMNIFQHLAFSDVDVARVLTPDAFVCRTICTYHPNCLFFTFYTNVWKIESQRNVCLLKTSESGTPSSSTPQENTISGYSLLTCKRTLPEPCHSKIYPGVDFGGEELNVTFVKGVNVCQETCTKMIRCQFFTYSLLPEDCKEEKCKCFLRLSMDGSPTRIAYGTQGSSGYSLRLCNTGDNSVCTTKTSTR
# protocolText: Kallikrein inhibition assay (FLINT) utilizing a quenched AMC peptide substrate
# Type: biochemical
# conditionSummary: 30 min preincubation, kinetic reads over 30 min, Z-Gly-Pro-Arg-AMC substrate 50 μM; read-out: Kallikrein Kin Inh IC50

>  <compound>
CC(O)COc1nccc(-c2cnc([C@@H]3CC[C@H]4CC(c5c(-n6cnnn6)ccc(Cl)c5F)=CC(=O)N43)[nH]2)c1F (single isomer, unassigned) [Example 29]

>  <IC50>
307 nM

$$$$
>  <compound>
O=C1C=C(c2c(-n3cnnn3)ccc(Cl)c2F)C[C@H]2CC[C@@H](c3nc(F)c(-c4ccnc(-n5nccn5)c4)[nH]3)N12 [Example 87]

>  <IC50>
1.6 nM

$$$$
>  <compound>
CCC(=O)Nc1ccccc1-c1c[nH]c([C@@H]2CC[C@H]3CC(c4c(-n5cnnn5)ccc(Cl)c4F)=CC(=O)N32)n1 (relative stereo) [Example 296]

>  <IC50>
5.4 nM

$$$$

----------
# experimentalSystem: human plasma kallikrein (Homo sapiens (Human), UniProt P03952)
# protocolText: Kallikrein inhibition assay (FLINT) utilizing a quenched AMC peptide substrate
# Type: biochemical
# conditionSummary: μM; 30 min preincubation, kinetic reads; read-out: Kallikrein Kin Inh IC50
Listing: IC50 of selected molecules

>  <molecule>
CS(=O)(=O)Nc1ccccc1-c1c[nH]c([C@@H]2CCC3CC(c4c(-n5cnnn5)ccc(Cl)c4F)=CC(=O)N32)n1 (stereo partly shown) [Example 293]

>  <relation>
=

>  <IC50 (µM)>
1.2

$$$$
>  <molecule>
Cn1nncc1-c1c[nH]c([C@@H]2CCC3CC(c4c(-n5cnnn5)ccc(Cl)c4F)=CC(=O)N32)n1 (stereo partly shown) [Example 339]

>  <relation>
=

>  <IC50 (µM)>
2.05

$$$$
>  <molecule>
O=C1C=C(c2c(-n3cnnn3)ccc(Cl)c2F)CC2CC[C@@H](c3nc(-c4nc[nH]n4)c[nH]3)N12 (stereo partly shown) [Example 331]

>  <relation>
=

>  <IC50 (µM)>
2.4

$$$$
>  <molecule>
Cn1cnc(-c2c[nH]c([C@@H]3CC[C@H]4CC(c5c(-n6cnnn6)ccc(Cl)c5F)=CC(=O)N43)n2)n1 [Example 274]

>  <relation>
>

>  <IC50 (µM)>
1

$$$$
>  <molecule>
Nc1ccncc1-c1c[nH]c([C@@H]2CCC3CC(c4c(-n5cnnn5)ccc(Cl)c4F)=CC(=O)N32)n1 (stereo partly shown) [Example 253]

>  <relation>
>

>  <IC50 (µM)>
1

$$$$
>  <molecule>
C[C@H]1C[C@@H](c2ncc(-c3ccc(N)nc3F)[nH]2)N2C(=O)C=C(c3c(-n4cnnn4)ccc(Cl)c3F)C[C@H]12 (relative stereo) [Example 344]

>  <relation>
=

>  <IC50 (µM)>
1.3

$$$$
>  <molecule>
Cn1ccnc1-c1c[nH]c([C@@H]2CCC3CC(c4c(-n5cnnn5)ccc(Cl)c4F)=CC(=O)N32)n1 (stereo partly shown) [Example 334]

>  <relation>
=

>  <IC50 (µM)>
7.3

$$$$
>  <molecule>
O=C1C=C(c2c(-n3cnnn3)ccc(Cl)c2F)CC2CC[C@@H](c3nc(-c4ncc[nH]4)c[nH]3)N12 (stereo partly shown) [Example 333]

>  <relation>
=

>  <IC50 (µM)>
1.1

$$$$
>  <molecule>
CN(C)C(=O)c1ccccc1-c1c[nH]c([C@@H]2CCC3CC(c4c(-n5cnnn5)ccc(Cl)c4F)=CC(=O)N32)n1 (stereo partly shown) [Example 288]

>  <relation>
=

>  <IC50 (µM)>
1.1

$$$$
>  <molecule>
Nc1ccncc1-c1c[nH]c([C@@H]2CC[C@H]3CC(c4c(-n5cnnn5)ccc(Cl)c4F)=CC(=O)N32)n1 [Example 272]

>  <relation>
>

>  <IC50 (µM)>
1

$$$$
>  <molecule>
Nc1ccc(-c2cnc([C@@H]3CCC4CC(c5c(-c6ccn[nH]6)ccc(Cl)c5F)=CC(=O)N43)[nH]2)c(F)n1 (stereo partly shown) [Example 363]

>  <relation>
>

>  <IC50 (µM)>
1

$$$$
>  <molecule>
Cn1cc(-c2ccccc2NC(=O)C2CC2)nc1[C@@H]1CC[C@@H]2CC(c3c(-n4cnnn4)ccc(Cl)c3F)=CC(=O)N21 (single isomer, unassigned) [Example 298]

>  <relation>
=

>  <IC50 (µM)>
1.05

$$$$
>  <molecule>
Nc1ccc(-c2cnc([C@H]3CC[C@H]4CC(c5c(-n6cnnn6)ccc(Cl)c5F)=CC(=O)N43)[nH]2)c(F)n1 [Example 357]

>  <relation>
=

>  <IC50 (µM)>
2.3

$$$$
>  <molecule>
NC(=O)c1ccccc1-c1cnc([C@@H]2CCC3CC(c4c(-n5cnnn5)ccc(Cl)c4F)=CC(=O)N32)[nH]1 (stereo partly shown) [Example 290]

>  <relation>
=

>  <IC50 (µM)>
1.2

$$$$
>  <molecule>
Nc1ccc(-c2cnc([C@H]3CC[C@@H]4CC(c5c(-n6cnnn6)ccc(Cl)c5F)=CC(=O)N43)[nH]2)c(F)n1 [Example 356]

>  <relation>
>

>  <IC50 (µM)>
10

$$$$
>  <molecule>
Cn1cnc(-c2c[nH]c([C@@H]3CCC4CC(c5c(-n6cnnn6)ccc(Cl)c5F)=CC(=O)N43)n2)n1 (stereo partly shown) [Example 255]

>  <relation>
>

>  <IC50 (µM)>
1

$$$$

----------
# experimentalSystem: Factor XIa (Homo sapiens (Human), UniProt P03951)
# Sequence (P03951 388-625): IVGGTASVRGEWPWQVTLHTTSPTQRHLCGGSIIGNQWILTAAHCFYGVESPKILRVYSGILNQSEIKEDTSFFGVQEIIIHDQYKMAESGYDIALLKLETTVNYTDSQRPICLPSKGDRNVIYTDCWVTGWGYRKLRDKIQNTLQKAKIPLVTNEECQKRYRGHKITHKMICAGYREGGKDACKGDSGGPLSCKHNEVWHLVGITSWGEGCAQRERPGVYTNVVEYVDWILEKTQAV
# Sequence (P03951 19-387 partner): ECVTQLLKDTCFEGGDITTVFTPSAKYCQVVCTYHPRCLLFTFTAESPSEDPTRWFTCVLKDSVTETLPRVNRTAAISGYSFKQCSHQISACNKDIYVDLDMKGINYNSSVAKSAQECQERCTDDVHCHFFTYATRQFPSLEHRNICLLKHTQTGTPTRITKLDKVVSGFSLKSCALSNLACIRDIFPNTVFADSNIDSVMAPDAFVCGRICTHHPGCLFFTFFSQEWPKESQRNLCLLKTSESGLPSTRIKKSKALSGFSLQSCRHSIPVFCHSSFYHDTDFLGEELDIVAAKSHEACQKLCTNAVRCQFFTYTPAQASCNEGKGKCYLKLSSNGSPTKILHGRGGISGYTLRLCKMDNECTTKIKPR
# protocolText: Factor XIa inhibition assay (FLINT) utilizing a fluorophore-quencher pair peptide substrate
# Format: biochemical
# conditionSummary: 30 min preincubation, kinetic reads over 30 min, 5Fam-KLTRAETV-K5Tamra substrate 15 μM; read-out: FXIa Kin Inh IC50
measurementName: log10 of IC50 (log10 of the value in nM)

>  <compound>
N#CC1(c2nccc(-c3cnc([C@@H]4CC[C@@H]5CC(c6c(-n7cnnn7)ccc(Cl)c6F)=CC(=O)N54)[nH]3)c2F)CC1 (single isomer, unassigned)

>  <measurementName>
log10 of IC50

>  <testResult>
1.46

$$$$
>  <compound>
[2H]c1cc(-c2cnc([C@@H]3CC[C@@H]4CC(c5c(-n6cnnn6)ccc(Cl)c5F)=CC(=O)N43)[nH]2)c(F)nc1N

>  <measurementName>
log10 of IC50

>  <testResult>
-0.30

$$$$
>  <compound>
O=C1C=C(c2c(-n3cnnn3)ccc(Cl)c2F)C[C@H]2CC[C@@H](c3ncc(-c4ccnc(-n5cccn5)c4)[nH]3)N12

>  <measurementName>
log10 of IC50

>  <testResult>
1.01

$$$$
>  <compound>
O=C1C=C(c2c(-n3cnnn3)ccc(Cl)c2F)C[C@H]2CC[C@@H](c3nc(F)c(-c4ccnc(-n5cccn5)c4)[nH]3)N12

>  <measurementName>
log10 of IC50

>  <testResult>
0.18

$$$$
>  <compound>
CC(O)COc1nccc(-c2cnc([C@@H]3CC[C@H]4CC(c5c(-n6cnnn6)ccc(Cl)c5F)=CC(=O)N43)[nH]2)c1F (single isomer, unassigned)

>  <measurementName>
log10 of IC50

>  <testResult>
1.76

$$$$
